# test-name: Cytotoxicity against human HepG2 cells assessed as reduction in cell viability incubated for 24 hrs by MTT assay
# Type: toxicity, cell-based
Items are presented alongside their recorded CC50 at 24 h.
measurement-label: CC50 at 24 h

>>> print(df.to_string())
                         chemical_structure  observed_value
0  COc1ccc(N2C(=O)c3cccc(NCc4ccccc4)c3C2=O)cc1        > 250 µM
1        COc1ccc(N2C(=O)c3cccc(N)c3C2=O)cc1        > 250 µM

* * *

# System: Plasmodium falciparum
# test-name: Antiplasmodial activity against chloroquine sensitive Plasmodium falciparum D6 infected in erythrocytes (unknown origin) incubated for 72 hrs by SYBR green I staining based fluorescence assay
# Assay type: functional, organism-based
# setup-conditions: D6, Erythrocyte
pIC50: −log10 of the molar value.
measurement-label: pIC50

compound	test-target	observed-value
Cc1ccc2c(c1)C(=O)N(C(Cc1ccccc1)C(=O)NC(Cc1ccccc1)C(O)CN1CCN(CC(O)C(Cc3ccccc3)NC(=O)C(Cc3ccccc3)N3C(=O)c4ccc(C)cc4C3=O)CC1)C2=O (stereo unspecified)	Plasmodium falciparum	6.04
